Where these numbers come from: ChEMBL document CHEMBL1240409

Tested on: DU-145
Test: Growth inhibition of human DU145 cells after 96 hrs by trypan blue exclusion assay
Type: functional
Conditions: DU-145, 96 h
property measured: GI50

Examples with answers:
{"smiles entry": "O=C(/C(=C\\c1c(O)cc(O)cc1O)SCc1ccc(Cl)cc1)c1ccc(Cl)cc1", "GI50": "> 100 µM"}
{"smiles entry": "Cc1ccc(S/C(=C/c2cnc3ccccc3c2)C(=O)c2ccc(Cl)cc2)cc1", "GI50": "> 100 µM"}

Now consider the entry below.
Consider the compound Cc1ccc(S/C(=C/c2sccc2C)C(=O)c2ccc(Br)cc2)cc1 and give its recorded GI50.
50 µM

###

Examples of molecules with documented solubility follow.
Assay: Aqueous solubility of the compound
Assay type: physicochemical
Settings: buffer

// solved cases for solubility follow
{"smiles entry": "CCN(CC)CCNC(=O)c1ccc(C(=O)/C(=C\\c2ccc(F)c([N+](=O)[O-])c2)SCc2ccc(Br)cc2)cc1", "solubility": "> 10000 µg/mL"}
{"smiles entry": "O=C(O)c1ccc(C(=O)/C(=C\\c2ccc(F)c([N+](=O)[O-])c2)SCc2ccc(C(F)(F)F)cc2)cc1", "solubility": "< 1000 µg/mL"}

Continue with the molecule presented below.
Given O=C(O)c1ccc(C(=O)/C(=C\c2ccc(Cl)c([N+](=O)[O-])c2)SCc2ccc(Br)cc2)cc1 , respond with its solubility.
< 1000 µg/mL

###

Tested on: DU-145
Assay: Growth inhibition of human DU145 cells after 96 hrs by trypan blue exclusion assay
Format: functional
Settings: DU-145, 96 h
property measured: GI50 (µM)

{"smiles entry": "O=C(/C(=C\\c1ccc(OC(F)(F)F)cc1)S(=O)(=O)c1ccc(Br)cc1)c1ccc(Br)cc1", "assayed system": "DU-145", "unit annotation": "µM", "GI50": 25}

[A] Cc1ccsc1/C=C(/SCc1ccc(Cl)cc1)C(=O)c1ccc(Br)cc1
[B] O=C(/C(=C\c1ccc(Cl)cc1Cl)S(=O)(=O)c1ccc(Br)cc1)c1ccc(Cl)cc1
Which has the higher GI50, A or B ? Please indicate the selected item by its label.
B
(B: 50 µM, A: 25 µM)

###

System: DU-145
Experiment: Growth inhibition of human DU145 cells after 96 hrs by trypan blue exclusion assay
Assay type: functional
Settings: DU-145, 96 h
property measured: GI50 (µM)

{"smiles entry": "Cc1cc(C)cc(/C=C(/SCc2ccc(F)cc2)C(=O)c2ccc(Br)cc2)c1", "assayed system": "DU-145", "property measured": "GI50", "endpoint value": 10}
{"smiles entry": "COc1cc(OC)c(/C=C(\\C(=O)c2ccc([N+](=O)[O-])cc2)S(=O)(=O)Cc2ccc(Cl)cc2)c(OC)c1", "assayed system": "DU-145", "property measured": "GI50", "endpoint value": 10}

###

Test system: DU-145
Assay: Growth inhibition of human DU145 cells after 96 hrs by trypan blue exclusion assay
Format: functional
Conditions: DU-145, 96 h
property measured: GI50

{"smiles entry": "O=C(/C(=C\\c1ccc(O)c([N+](=O)[O-])c1)Sc1ccc(Br)cc1)c1ccc(Br)cc1", "GI50": "1 µM"}
{"smiles entry": "O=C(/C(=C\\c1c[nH]c2ccccc12)SCc1ccc(F)cc1)c1ccc(Cl)cc1", "GI50": "1 µM"}

Report GI50 from DU-145 testing of O=C(O)c1cc(/C=C(\C(=O)c2c(F)c(F)c(F)c(F)c2F)S(=O)(=O)c2ccc(Br)cc2)ccc1O
> 100 µM

Tell me its GI50 on DU-145: Cc1ccc(S/C(=C/c2ccc(N(C)C)cc2)C(=O)c2ccc(Cl)cc2)cc1
> 100 µM

Please tell me the measured GI50 for Cc1ccc(S(=O)(=O)/C(=C/c2ccc(N(C)C)cc2)C(=O)c2ccc(Cl)cc2)cc1 ; system: DU-145.
> 100 µM

Consider the compound O=C(O)c1ccc(C(=O)/C(=C\c2ccc(O)c([N+](=O)[O-])c2)SCc2ccc(F)cc2)cc1 tested on DU-145; state its GI50.
> 100 µM
